This collection of values is drawn from the supplement of paper PMC6757056.

I'd appreciate it if you could supply normalized RNA/DNA level with ligand (log10) values for the items below.
B1: library; a variant is named by its letters at N, in order (parent)
chain: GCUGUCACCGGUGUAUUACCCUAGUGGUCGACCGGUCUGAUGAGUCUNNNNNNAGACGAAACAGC

# Variants of: B1
# test protocol: normalized RNA/DNA level with ligand (relative to sTRSVctl = 100) (log10 (% of sTRSVctl)); ligand: hypoxanthine (xanthine aptamer); higher = less ribozyme self-cleavage, higher mRNA level
# study conditions: ligand concentration (+) RNA-Seq: 5 mM, HEK293T, reporter: mCherry (pCS4076), ligand present: yes
Give a plain numeric answer without units written out.

Request: For GCUGUG , what is its reported normalized RNA/DNA level with ligand (log10)?
Response: 1.93

Request: Need normalized RNA/DNA level with ligand (log10), item CCCAAC
Response: 1.96

Request: I would be grateful if you could share the reported normalized RNA/DNA level with ligand (log10) for CUAUAA .
Response: 1.9

Request: Would you mind telling me what normalized RNA/DNA level with ligand (log10) value was observed for UUGUGG ?
Response: 2.01

Request: Could you share which normalized RNA/DNA level with ligand (log10) value was measured for ACGCCA ?
Response: 1.95

Request: If you can, please state the reported normalized RNA/DNA level with ligand (log10) value of AAGGAG .
Response: 1.62

Request: Reported normalized RNA/DNA level with ligand (log10) for ACCCAG : what is it?
Response: 1.83

Request: Give its normalized RNA/DNA level with ligand (log10) value. Item: CCCGCU
Response: 1.94

Request: Fill in the blank: the reported normalized RNA/DNA level with ligand (log10) of AUAUUC is ____.
Response: 1.92

Request: May I ask what normalized RNA/DNA level with ligand (log10) has been recorded for ACGAAU ?
Response: 1.77

Request: Can you share its normalized RNA/DNA level with ligand (log10)? I mean this variant: GAGACA
Response: 1.9

Request: What measured normalized RNA/DNA level with ligand (log10) goes with ACAGAA ?
Response: 1.92

Request: Requested field: normalized RNA/DNA level with ligand (log10). Item: GAAGGA
Response: 1.92

Request: Need normalized RNA/DNA level with ligand (log10) of UCCGGC , thanks.
Response: 2.02

Request: // lookup normalized RNA/DNA level with ligand (log10) for AACGAU
Response: 1.9

Request: Return reported normalized RNA/DNA level with ligand (log10); argument: CUGUUA
Response: 1.95

Request: Tell me the measured normalized RNA/DNA level with ligand (log10) of GAGGAU , please.
Response: 1.95

Request: So what does the record say about normalized RNA/DNA level with ligand (log10) for GCCGGU ?
Response: 1.96

Request: Entry under review: UCUUGA . Reported normalized RNA/DNA level with ligand (log10)?
Response: 1.94

Request: Recorded normalized RNA/DNA level with ligand (log10) for UCGGGG , please?
Response: 1.98

Request: What normalized RNA/DNA level with ligand (log10) value was documented for this variant, UAUUGC ?
Response: 1.94

Request: Give its normalized RNA/DNA level with ligand (log10) value. Item: GUUGGG
Response: 1.89
